- Tested on: Escherichia coli
- PROCEDURE_DETAILS: Antibacterial activity against Escherichia coli RCMB 010052 assessed as diameter of inhibition zone at 1 mg/mL after 24 to 48 hrs by agar well diffusion method
- Format: functional
- CONDITION_LABEL: read-out: DIZ
Label rule, in plain words: zone of inhibition at 1000 µg/mL of 20 mm and up is true (1), under 20 mm is false (0).

{"STRUCTURE_SMILES": "COc1cc(NS(=O)(=O)c2ccc(NC(=S)Nc3cc(C)nc4ccccc34)cc2)nc(OC)n1", "LABEL": "false (0)"}
{"STRUCTURE_SMILES": "COc1cc(NS(=O)(=O)c2ccc(NC(=S)Nc3ccc4c(c3)oc(=O)c3ccccc34)cc2)nc(OC)n1", "LABEL": "false (0)"}
{"STRUCTURE_SMILES": "CCOc1ccc2nc(NC(=S)Nc3ccc(S(=O)(=O)Nc4cc(OC)nc(OC)n4)cc3)sc2c1", "LABEL": "false (0)"}
{"STRUCTURE_SMILES": "COc1cc(NS(=O)(=O)c2ccc(NC(=S)NC3CCN(Cc4ccccc4)CC3)cc2)nc(OC)n1", "LABEL": "false (0)"}
{"STRUCTURE_SMILES": "COc1cc(NS(=O)(=O)c2ccc(NC(=S)Nc3ccc4c(C)cc(=O)oc4c3)cc2)nc(OC)n1", "LABEL": "true (1)"}
{"STRUCTURE_SMILES": "COc1cc(NS(=O)(=O)c2ccc(NC(=S)Nc3cnccn3)cc2)nc(OC)n1", "LABEL": "true (1)"}

---

- PROCEDURE_DETAILS: Cytotoxicity against human MCF7 cells assessed as decrease in cell viability after 24 hrs by MTT assay
- Assay type: functional, cell-based
- CONDITION_LABEL: MCF7, 24 h
// reported IC50 per item
READOUT_KIND: IC50 (µg/mL)

{"STRUCTURE_SMILES": "COc1cc(NS(=O)(=O)c2ccc(NC(=S)Nc3cnccn3)cc2)nc(OC)n1", "CENSORING_SIGN": ">", "QUANTITATIVE_RESULT": 200}
{"STRUCTURE_SMILES": "COc1cc(NS(=O)(=O)c2ccc(NC(=S)Nc3c(C)n(C)n(-c4ccccc4)c3=O)cc2)nc(OC)n1", "CENSORING_SIGN": "=", "QUANTITATIVE_RESULT": 113}
{"STRUCTURE_SMILES": "O=c1[nH]cc(F)c(=O)[nH]1", "CENSORING_SIGN": "=", "QUANTITATIVE_RESULT": 4.8}
{"STRUCTURE_SMILES": "COc1cc(NS(=O)(=O)c2ccc(NC(=S)Nc3nnc(C)c(C)n3)cc2)nc(OC)n1", "CENSORING_SIGN": "=", "QUANTITATIVE_RESULT": 44.8}

---

- Test system: Bacillus subtilis
- PROCEDURE_DETAILS: Antibacterial activity against Bacillus subtilis RCMB 010067 assessed as diameter of inhibition zone at 1 mg/mL after 24 to 48 hrs by agar well diffusion method
- Format: functional
- CONDITION_LABEL: read-out: DIZ
Label rule, in plain words: zone of inhibition at 1000 µg/mL of 20 mm and up is condition met, under 20 mm is condition not met.

{"STRUCTURE_SMILES": "COc1cc(NS(=O)(=O)c2ccc(NC(=S)Nc3cc(C)nc4ccccc34)cc2)nc(OC)n1", "LABEL": "condition not met"}
{"STRUCTURE_SMILES": "COc1cc(NS(=O)(=O)c2ccc(NC(=S)NC3CCN(Cc4ccccc4)CC3)cc2)nc(OC)n1", "LABEL": "condition not met"}
{"STRUCTURE_SMILES": "CCOc1ccc2nc(NC(=S)Nc3ccc(S(=O)(=O)Nc4cc(OC)nc(OC)n4)cc3)sc2c1", "LABEL": "condition met"}
{"STRUCTURE_SMILES": "COc1cc(NS(=O)(=O)c2ccc(NC(=S)Nc3cc(=O)n(C)c(=O)n3C)cc2)nc(OC)n1", "LABEL": "condition not met"}
{"STRUCTURE_SMILES": "COc1cc(NS(=O)(=O)c2ccc(NC(=S)Nc3nc4cc(C)c(C)cc4s3)cc2)nc(OC)n1", "LABEL": "condition met"}
